FYI, the data here is from patent US10004232B2.

So I've got a bunch of molecules here, and I need their chromatographic logP values.
assay: logP determination by HPLC on reversed-phase columns (C 18), EEC Directive 79/831 Annex V.A8; format: physicochemical; settings: reversed-phase C18 HPLC column; [a] LC-MS in the acidic range, pH 2.7, 0.1% aqueous formic acid and acetonitrile

| molecule | chromatographic logP |
| --- | --- |
| C#CCOc1ccc(F)c(C2CC(c3csc(C4CCN(C(=O)Cn5nc(C(F)F)cc5C(F)F)CC4)n3)=NO2)c1F (stereo not shown) [Example I-2] | 3.26 |

For each listed entry, give its chromatographic logP.
1. C#CCOc1cc(C)c(C)cc1C1(C)CC(c2csc(C3CCN(C(=O)Cn4nc(C(F)F)cc4C(F)F)CC3)n2)=NO1 (stereo not shown) [Example I-1]
2. CS(=O)(=O)Nc1cc(F)c(C2CC(c3csc(C4CCN(C(=O)Cn5nc(C(F)F)cc5C(F)F)CC4)n3)=NO2)c(F)c1 (stereo not shown) [Example I-5]
3. C=CCOc1ccc(F)c(C2CC(c3csc(C4CCN(C(=O)Cn5nc(C(F)F)cc5C(F)F)CC4)n3)=NO2)c1F (stereo not shown) [Example I-4]

1. 4.1
2. 2.63
3. 3.59
